Catalogue of interaction score readings, one per entry.
Tgt: T1, 4H949-bA
T1 chain: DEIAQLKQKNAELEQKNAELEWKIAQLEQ
Test Description: two-hybrid library CCNG1;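 further: natural log of median RNA to DNA barcode read ratio; higher means stronger binding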
Recorded Metric: interaction score

>>> recorded_value("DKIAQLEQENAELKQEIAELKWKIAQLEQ [4H2253-bA]")
-0.968
>>> recorded_value("DKIAQLKQKNAELKQKIAELEWEIAQLEQ [4H3041-bA]")
-1.15
>>> recorded_value("DEIAQLKQKNAELEQKNAELEWKIAQLEQ [4H949-bA]")
-0.253
>>> recorded_value("DKNAQLEQKIAELEQKIAELEWENAQLKQ [4H3364-bA]")
-1.22
>>> recorded_value("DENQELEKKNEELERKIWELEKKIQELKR [4H1446-bH]")
-2.01
>>> recorded_value("DKNAQLEQENAELKQKIAELEWEIAQLEQ [4H3297-bA]")
-0.949
>>> recorded_value("DKNAQLEQKIAELEQKNAELEWKIAQLEQ [4H3381-bA]")
-1.1
>>> recorded_value("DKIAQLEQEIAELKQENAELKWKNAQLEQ [4H2143-bA]")
-0.273
>>> recorded_value("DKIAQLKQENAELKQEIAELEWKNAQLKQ [4H2760-bA]")
-1.14
>>> recorded_value("DEIAQLEQEIAELEQKIAELEWKNAQLKQ [4H40-bA]")
-1.8
